Recorded Diameter of colony (mm) by entry
Tested on: Alternaria tenuis
ASSAY NOTES: Fungicidal effect on infected agar nutrient media, colony diameter
Type: cell-based
EXPERIMENTAL CONTEXT: 10 ppm; 5th day after treatment; untreated control 36.8
MEASURE NAME: Diameter of colony (mm)

MOLECULE | RECORDED VALUE
CCCCOP1(=S)OCCS1 (centres unmarked) [Compound 59] | 24.1 mm
CC(Cl)C(C)OP1(=S)OC(C)C(C)S1 (centres unmarked) | 23.3 mm
CCC(C)OP1(=S)OCCS1 (centres unmarked) | 25.9 mm
S=P1(OCCS)OCCS1 (centres unmarked) | 22.1 mm
CC(Br)COP1(=S)OC(C)CS1 (centres unmarked) | 24.1 mm
CC(CCl)OP1(=S)OC(C)CS1 (centres unmarked) | 21.7 mm
CC(C)COP1(=S)OC(C)CS1 (centres unmarked) | 26.2 mm
CC(CBr)OP1(=S)OCCS1 (centres unmarked) | 24.1 mm
CC(C)CCOP1(=S)OCCS1 (centres unmarked) | 23.8 mm
S=P1(OCCI)OCCS1 (centres unmarked) | 22.4 mm
CC(CCl)OP1(=S)OCCS1 (centres unmarked) | 21.6 mm
CC(CBr)OP1(=S)OC(C)C(C)S1 (centres unmarked) | 27.1 mm
CCCC(C)OP1(=S)OC(C)C(C)S1 (centres unmarked) | 24.4 mm
CC(CI)OP1(=S)OC(C)CS1 (centres unmarked) | 24.2 mm
CCOP1(=S)OCCS1 (centres unmarked) | 23.5 mm
CC1CSP(=S)(OC(C)C(C)I)O1 (centres unmarked) | 23.3 mm
CCCOP1(=S)OCC(C)S1 (centres unmarked) | 24.6 mm
CCC(C)OP1(=S)OC(C)C(C)S1 (centres unmarked) | 25.4 mm
CC(I)C(C)OP1(=S)OC(C)C(C)S1 (centres unmarked) | 20.4 mm
CC(I)COP1(=S)OCC(C)S1 (centres unmarked) | 22.4 mm
CC(C)COP1(=S)OCCS1 (centres unmarked) | 23.8 mm
CC1CSP(=S)(OCCBr)O1 (centres unmarked) | 22.3 mm
CC1OP(=S)(OCCCl)SC1C (centres unmarked) | 22.0 mm
CC(Cl)COP1(=S)OCCS1 (centres unmarked) | 25.8 mm
CCCCOP1(=S)OC(C)C(C)S1 (centres unmarked) | 24.2 mm
CC(I)COP1(=S)OCCS1 (centres unmarked) | 21.1 mm

###

System: Sclerotinia sclerotinia
ASSAY NOTES: Fungicidal effect on infected agar nutrient media, colony diameter
Format: cell-based
EXPERIMENTAL CONTEXT: 10 ppm; 3rd day after treatment; untreated control 41.7

MOLECULE | TARGET OR TEST SYSTEM | Diameter of colony (mm)
CC1CSP(=S)(OC(C)C(C)I)O1 (stereo not shown) | Sclerotinia sclerotinia | 30.2 mm
S=P1(OCCI)OCCS1 (stereo not shown) | Sclerotinia sclerotinia | 30.0 mm
CC(C)COP1(=S)OCCS1 (stereo not shown) | Sclerotinia sclerotinia | 29.7 mm
CC(Cl)COP1(=S)OCC(C)S1 (stereo not shown) | Sclerotinia sclerotinia | 30.3 mm
CC(I)C(C)OP1(=S)OCCS1 (stereo not shown) | Sclerotinia sclerotinia | 30.0 mm
CC1COP(=S)(OC(C)C(C)Cl)S1 (stereo not shown) | Sclerotinia sclerotinia | 29.2 mm
CCCOP1(=S)OCC(C)S1 (stereo not shown) | Sclerotinia sclerotinia | 29.1 mm
